Recorded values, source paper PMC12475083.

# TARGET_OR_SYSTEM: UniProt Q13547
# Sequence (Q13547 whole entry): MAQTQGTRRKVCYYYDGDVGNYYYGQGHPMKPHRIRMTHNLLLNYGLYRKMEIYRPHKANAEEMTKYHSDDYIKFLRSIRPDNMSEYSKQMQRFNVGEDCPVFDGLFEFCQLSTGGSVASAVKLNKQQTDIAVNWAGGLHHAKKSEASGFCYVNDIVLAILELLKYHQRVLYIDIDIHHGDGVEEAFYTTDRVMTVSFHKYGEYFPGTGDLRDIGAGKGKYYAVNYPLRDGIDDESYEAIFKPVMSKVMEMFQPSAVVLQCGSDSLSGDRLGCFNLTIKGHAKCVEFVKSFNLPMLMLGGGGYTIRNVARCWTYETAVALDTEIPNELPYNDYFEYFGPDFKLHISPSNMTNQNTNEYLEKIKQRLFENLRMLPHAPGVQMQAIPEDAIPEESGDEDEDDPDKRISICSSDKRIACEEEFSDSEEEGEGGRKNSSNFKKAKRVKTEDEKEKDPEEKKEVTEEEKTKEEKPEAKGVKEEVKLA
# ASSAY_REMARKS: biochemical
# Type: biochemical
# ASSAY_CONDITIONS: inhibitor at 1 µM
QUANTITY_KIND: hHDAC1 % @1 µM (%)
Could you give me the number in %? Just the number is fine.

>  <COMPOUND>
O=C(NO)c1ccc(N2CCN(Cc3cnc4ccccc4c3)CC2)cc1

>  <hHDAC1 % @1 µM (%)>
32.1

$$$$
>  <COMPOUND>
O=C(NO)c1ccc(N2CCN(Cc3c[nH]c4ccccc34)CC2)cc1

>  <hHDAC1 % @1 µM (%)>
48.4

$$$$
>  <COMPOUND>
Cc1ccc(S(=O)(=O)n2cc(CNCc3ccc(C(=O)NO)cc3)c3ccccc32)cc1

>  <hHDAC1 % @1 µM (%)>
22.2

$$$$

### Prompt What value of hHDAC1 % @1 µM has been reported for the following compound? Cc1ccc(S(=O)(=O)n2cc(CN3CCN(c4ccc(C(=O)NO)cc4)CC3)c3ccccc32)cc1
### Response 7.3

### Prompt What value of hHDAC1 % @1 µM has been reported for the following compound? CN1CCc2c(c3ccccc3n2Cc2ccc(C(=O)NO)cc2)C1 [Tubastatin A, reference compound]
### Response 7.6

### Prompt What value of hHDAC1 % @1 µM has been reported for the following compound? Cc1ccc(S(=O)(=O)n2cc(CNc3ccc(C(=O)NO)cc3)c3ccccc32)cc1
### Response 1.3
